// provenance: PubChem BioAssay AID1919009

test system: K24384-001-R-PDC complex spheroid growth; test: Anticancer human tumor K24384-001-R-PDC patient-derived pancreatic adenocarcinoma cell line growth inhibition [AhR]; conditions: second compound 3.16 µM; first compound 0.0316 µM; active compounds read low;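 note: percent of DMSO vehicle-treated spheroid viability set as 100%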
metric: viability, T/C

compound	metric	valueObserved
CC(C)c1c(-c2ccccc2)nc2c(C#N)c[nH]n2c1=O + Cc1cncc(-c2nc(NCCc3c[nH]c4ccccc34)c3ncn(C(C)C)c3n2)c1	viability, T/C	83.7%
CC[C@@]1(O)C(=O)OCc2c1cc1n(c2=O)Cc2cc3c(CN(C)C)c(O)ccc3nc2-1 + Cc1ccccc1N=Nc1ccc(NC(=O)c2ccnn2C)c(C)c1	viability, T/C	38.3%
NS(=O)(=O)OCC1CC(n2ccc3c(NC4CCc5ccccc54)ncnc32)CC1O (configuration not stated) + Cc1cncc(-c2nc(NCCc3c[nH]c4ccccc34)c3ncn(C(C)C)c3n2)c1	viability, T/C	132%
CC1(C)CCC(CN2CCN(c3ccc(C(=O)NS(=O)(=O)c4ccc(NCC5CCOCC5)c([N+](=O)[O-])c4)c(Oc4cnc5[nH]ccc5c4)c3)CC2)=C(c2ccc(Cl)cc2)C1 + CC(CO)NC(=O)c1cc(-c2ccc(Cl)cc2)nn(-c2cnn(C)c2)c1=O	viability, T/C	97.3%
Cn1ncnc1C1c2n[nH]c(=O)c3cc(F)cc(c23)NC1c1ccc(F)cc1 (configuration not stated) + Cc1cncc(-c2nc(NCCc3c[nH]c4ccccc34)c3ncn(C(C)C)c3n2)c1	viability, T/C	69.8%
COc1cc(Nc2ncc3c(n2)-c2ccc(Cl)cc2C(c2c(F)cccc2OC)=NC3)ccc1C(=O)O + Cc1ccccc1N=Nc1ccc(NC(=O)c2ccnn2C)c(C)c1	viability, T/C	64.7%
COc1cccc2c1C(=O)c1c(O)c3c(c(O)c1C2=O)CC(O)(C(=O)CO)CC3OC1CC(N)C(O)C(C)O1 (configuration not stated) + Cc1cncc(-c2nc(NCCc3c[nH]c4ccccc34)c3ncn(C(C)C)c3n2)c1	viability, T/C	41.2%
CC[C@@]1(O)C(=O)OCc2c1cc1n(c2=O)Cc2cc3c(CN(C)C)c(O)ccc3nc2-1 + Cc1cncc(-c2nc(NCCc3c[nH]c4ccccc34)c3ncn(C(C)C)c3n2)c1	viability, T/C	52%
COc1cccc2c1C(=O)c1c(O)c3c(c(O)c1C2=O)CC(O)(C(=O)CO)CC3OC1CC(N)C(O)C(C)O1 (configuration not stated) + Cc1ccccc1N=Nc1ccc(NC(=O)c2ccnn2C)c(C)c1	viability, T/C	47.6%
O=C(C=Cc1cccc(S(=O)(=O)Nc2ccccc2)c1)NO + CC(CO)NC(=O)c1cc(-c2ccc(Cl)cc2)nn(-c2cnn(C)c2)c1=O	viability, T/C	107%
O=C(c1cc(Cc2n[nH]c(=O)c3ccccc23)ccc1F)N1CCN(C(=O)C2CC2)CC1 + Cc1cncc(-c2nc(NCCc3c[nH]c4ccccc34)c3ncn(C(C)C)c3n2)c1	viability, T/C	106%
CC(C)c1c(-c2ccccc2)nc2c(C#N)c[nH]n2c1=O + Cc1ccccc1N=Nc1ccc(NC(=O)c2ccnn2C)c(C)c1	viability, T/C	98.2%
O=C(C=Cc1cccc(S(=O)(=O)Nc2ccccc2)c1)NO + Cc1cncc(-c2nc(NCCc3c[nH]c4ccccc34)c3ncn(C(C)C)c3n2)c1	viability, T/C	118%
COc1cc(Nc2ncc3c(n2)-c2ccc(Cl)cc2C(c2c(F)cccc2OC)=NC3)ccc1C(=O)O + CC(CO)NC(=O)c1cc(-c2ccc(Cl)cc2)nn(-c2cnn(C)c2)c1=O	viability, T/C	90.6%
CC1(C)CCC(CN2CCN(c3ccc(C(=O)NS(=O)(=O)c4ccc(NCC5CCOCC5)c([N+](=O)[O-])c4)c(Oc4cnc5[nH]ccc5c4)c3)CC2)=C(c2ccc(Cl)cc2)C1 + Cc1cncc(-c2nc(NCCc3c[nH]c4ccccc34)c3ncn(C(C)C)c3n2)c1	viability, T/C	116%
COc1cc(C2c3cc4c(cc3C(OC3OC5COC(C)OC5C(O)C3O)C3COC(=O)C23)OCO4)cc(OC)c1O (configuration not stated) + CC(CO)NC(=O)c1cc(-c2ccc(Cl)cc2)nn(-c2cnn(C)c2)c1=O	viability, T/C	74.6%
CC1COCCN1c1cc(-c2ccnn2C)c2ccnc(-c3ccn[nH]3)c2n1 (configuration not stated) + Cc1ccccc1N=Nc1ccc(NC(=O)c2ccnn2C)c(C)c1	viability, T/C	82.1%
